Exercise: state measured MIC Values MRSA for each of the sequences provided.
# Test system: MRSA (methicillin resistant Staphylococcus aureus)
# measurement description: Modified NCCLS minimum inhibitory concentration (MIC) assay
# Assay type: cell-based
# applied conditions: Table 4
Quick note: give the figure in µg/mL, leave out the unit.

Problem: Quote MIC Values MRSA reported for `WLCYCRRRFCVCV` please.
Result: 32

Problem: Quote MIC Values MRSA reported for `WYCYCRRRFCVCV` please.
Result: 43

Problem: Quote MIC Values MRSA reported for `WLCYCRRRFCVCVGR` please.
Result: 32

Problem: Quote MIC Values MRSA reported for `RGGRLCYCRRRFCVCVGR` please.
Result: 4

Problem: Quote MIC Values MRSA reported for `RLCYCRRRFCVCV` please.
Result: 10.7

Problem: Quote MIC Values MRSA reported for WLCYCRRRFCVCV [WLCYCRRRFCVCV.dagger.] please.
Result: 3.33

Problem: Quote MIC Values MRSA reported for RLCYCRRRFCVCVV [RLCYCRRRFCVCVV.dagger.] please.
Result: 2

* * *

# Tested on: Pseudomonas aeruginosa
# measurement description: Modified NCCLS minimum inhibitory concentration (MIC) assay
# Assay type: cell-based
# applied conditions: Table 4; Psa is Pseudomonas aeruginosa
Positions of bridges follow the written chain, without caps; N, C: chain ends. Residues, ends and D or L forms follow the SMILES beside them.
property: MIC Values Psa (µg/mL)
Quick note: give the figure in µg/mL, leave out the unit.

Problem: Quote MIC Values Psa reported for CC(C)[C@@H]1NC(=O)[C@@H]2CSSC[C@H](NC(=O)[C@H](Cc3ccc(O)cc3)NC(=O)[C@H](Cc3c[nH]c4ccccc34)NC1=O)C(=O)N[C@@H](Cc1ccc(O)cc1)C(=O)N[C@H]1CSSC[C@H](NC(=O)[C@H](Cc3ccccc3)NC(=O)[C@H](CCCNC(=N)N)NC(=O)[C@H](CCCNC(=N)N)NC(=O)[C@H](CCCNC(=N)N)NC1=O)C(=O)N[C@@H](C(C)C)C(=O)N2 [cyco(CYCRRRFCVCVWY), cyclo(CYCRRRFCVCVWY)] (cyclo(CRRRFCVCVWYCY); disulfide 1-6, 8-12) please.
Result: 32

Problem: Quote MIC Values Psa reported for CC(C)C[C@@H]1NC(=O)[C@H](CCCNC(=N)N)NC(=O)[C@H](C(C)C)NC(=O)[C@@H]2CSSC[C@H](NC1=O)C(=O)N[C@@H](Cc1ccc(O)cc1)C(=O)N[C@H]1CSSC[C@H](NC(=O)[C@H](Cc3ccccc3)NC(=O)[C@H](CCCNC(=N)N)NC(=O)[C@H](CCCNC(=N)N)NC(=O)[C@H](CCCNC(=N)N)NC1=O)C(=O)N[C@@H](C(C)C)C(=O)N2 [cyclo(CYCRRRFCVCVRL)] (cyclo(CRRRFCVCVRLCY); disulfide 1-6, 8-12) please.
Result: 2.67

Problem: Quote MIC Values Psa reported for CC(C)C[C@@H]1NC(=O)[C@H](CCCNC(=N)N)NC(=O)CNC(=O)CNC(=O)[C@H](CCCNC(=N)N)NC(=O)[C@H](CCCNC(=N)N)NC(=O)CNC(=O)[C@H](C(C)C)NC(=O)[C@@H]2CSSC[C@H](NC1=O)C(=O)N[C@@H](Cc1ccc(O)cc1)C(=O)N[C@H]1CSSC[C@H](NC(=O)[C@H](Cc3ccccc3)NC(=O)[C@H](CCCNC(=N)N)NC(=O)[C@H](CCCNC(=N)N)NC(=O)[C@H](CCCNC(=N)N)NC1=O)C(=O)N[C@@H](C(C)C)C(=O)N2 [cyclo(CYCRRRFCVCVGRRGGRL)] (cyclo(GGRLCYCRRRFCVCVGRR); disulfide 5-14, 7-12) please.
Result: 8
